# STUDY TARGET: KRAS^G12V (Homo sapiens, UniProt P01116, G12V)
# Sequence (P01116 whole entry G12V): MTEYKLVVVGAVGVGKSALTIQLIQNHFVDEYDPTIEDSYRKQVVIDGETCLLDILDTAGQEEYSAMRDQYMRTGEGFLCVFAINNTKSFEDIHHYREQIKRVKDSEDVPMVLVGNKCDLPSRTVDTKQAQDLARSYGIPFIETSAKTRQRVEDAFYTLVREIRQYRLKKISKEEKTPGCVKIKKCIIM
# ASSAY EXPLANATION: cell-based
# Set-up: endogenous; KRAS degradation by capillary electrophoresis immunodetection
# CONDITION SET: SW-620; read-out: Dmax 24 h SW620 [%]
EXPERIMENTAL READOUT: Dmax (%)
Answer format: numeric, % implied, no suffix.

Problem: Need Dmax of Cc1ncsc1-c1ccc([C@H](CO)NC(=O)[C@@H]2C[C@@H](O)CN2C(=O)[C@H](C(C)C)n2cc(OCCCCN3CCCN(c4nccc(-c5noc([C@@]6(C)CCCc7sc(N)c(C#N)c76)n5)n4)[C@@H](C)C3)nn2)cc1 [compound 7, ACBI3] , thanks.
Result: 83

Problem: Dmax lookup needed for Cc1ncsc1-c1ccc(CNC(=O)[C@@H]2C[C@@H](O)CN2C(=O)[C@@H](NC(=O)COCCCN2CCCN(c3nccc(-c4noc([C@@]5(C)CCCc6sc(N)c(C#N)c65)n4)n3)[C@@H](C)C2)C(C)(C)C)cc1 [compound 2] , thanks.
Result: 100

Problem: Form field: reported Dmax of Cc1ncsc1-c1ccc(CNC(=O)[C@@H]2C[C@@H](O)CN2C(=O)[C@@H](c2cc(OCCCCN3CCCN(c4nccc(-c5noc([C@@]6(C)CCCc7sc(N)c(C#N)c76)n5)n4)[C@@H](C)C3)no2)C(C)C)cc1 [compound 4]
Result: 89

Problem: Sample Cc1ncsc1-c1ccc(CNC(=O)[C@@H]2C[C@@H](O)CN2C(=O)[C@@H](NC(=O)CCCCCN2CCCN(c3nccc(-c4noc([C@@]5(C)CCCc6sc(N)c(C#N)c65)n4)n3)[C@@H](C)C2)C(C)(C)C)cc1 [compound 3] — what was its Dmax?
Result: 88

###

Assignment: determine reported pIC50 for the given compounds.
# Tested on: SW620
# ASSAY EXPLANATION: cells
# Parameters: pERK levels by capillary electrophoresis
# CONDITION SET: Homo sapiens, SW-620, 6 h
pIC50 here is simply -log10 of the concentration when that concentration is written in mol/L.

Problem: Name the reported pIC50 value associated with the compound Cc1ncsc1-c1ccc(CNC(=O)[C@@H]2C[C@@H](O)CN2C(=O)[C@@H](c2cc(OCCCCN3CCCN(c4nccc(-c5noc([C@@]6(C)CCCc7sc(N)c(C#N)c76)n5)n4)[C@@H](C)C3)no2)C(C)C)cc1 [compound 4]
Result: 8.04

Problem: Could you tell me which pIC50 is on file for Cc1ncsc1-c1ccc(CNC(=O)[C@@H]2C[C@@H](O)CN2C(=O)[C@@H](NC(=O)CCCCCN2CCCN(c3nccc(-c4noc([C@@]5(C)CCCc6sc(N)c(C#N)c65)n4)n3)[C@@H](C)C2)C(C)(C)C)cc1 [compound 3] ?
Result: 6.15

###

# System: NCI-H358
# ASSAY EXPLANATION: cells
# Parameters: pERK levels by capillary electrophoresis
# CONDITION SET: Homo sapiens, NCI-H358, 6 h
EXPERIMENTAL READOUT: pIC50
Please express pIC50 as -log10 of the molar concentration.

Problem: Please give the measured pIC50 for this compound: Cc1ncsc1-c1ccc(CNC(=O)[C@@H]2C[C@@H](O)CN2C(=O)[C@@H](c2cc(OCCCCN3CCCN(c4nccc(-c5noc([C@@]6(C)CCCc7sc(N)c(C#N)c76)n5)n4)[C@@H](C)C3)no2)C(C)C)cc1
Result: 8.09

Problem: Please look up its pIC50: C=CC(=O)N1CCN(c2nc(=O)n(-c3c(C)ccnc3C(C)C)c3nc(-c4c(O)cccc4F)c(F)cc23)[C@@H](C)C1
Result: 7.54
